# maps each entry to its relative molare Bindungs-affinität RBA (%) zum Glucocorticoidrezeptor Dexamethason = 100 %
# study-system: Glucocorticoidrezeptor (Rattus norvegicus, UniProt P06536)
# Construct: Rezeptoren im Cytosol aus tierischen Target-Organen; from tissue; host or cells: thymus cytosol of adrenalectomised rat
# Sequence (P06536 whole entry): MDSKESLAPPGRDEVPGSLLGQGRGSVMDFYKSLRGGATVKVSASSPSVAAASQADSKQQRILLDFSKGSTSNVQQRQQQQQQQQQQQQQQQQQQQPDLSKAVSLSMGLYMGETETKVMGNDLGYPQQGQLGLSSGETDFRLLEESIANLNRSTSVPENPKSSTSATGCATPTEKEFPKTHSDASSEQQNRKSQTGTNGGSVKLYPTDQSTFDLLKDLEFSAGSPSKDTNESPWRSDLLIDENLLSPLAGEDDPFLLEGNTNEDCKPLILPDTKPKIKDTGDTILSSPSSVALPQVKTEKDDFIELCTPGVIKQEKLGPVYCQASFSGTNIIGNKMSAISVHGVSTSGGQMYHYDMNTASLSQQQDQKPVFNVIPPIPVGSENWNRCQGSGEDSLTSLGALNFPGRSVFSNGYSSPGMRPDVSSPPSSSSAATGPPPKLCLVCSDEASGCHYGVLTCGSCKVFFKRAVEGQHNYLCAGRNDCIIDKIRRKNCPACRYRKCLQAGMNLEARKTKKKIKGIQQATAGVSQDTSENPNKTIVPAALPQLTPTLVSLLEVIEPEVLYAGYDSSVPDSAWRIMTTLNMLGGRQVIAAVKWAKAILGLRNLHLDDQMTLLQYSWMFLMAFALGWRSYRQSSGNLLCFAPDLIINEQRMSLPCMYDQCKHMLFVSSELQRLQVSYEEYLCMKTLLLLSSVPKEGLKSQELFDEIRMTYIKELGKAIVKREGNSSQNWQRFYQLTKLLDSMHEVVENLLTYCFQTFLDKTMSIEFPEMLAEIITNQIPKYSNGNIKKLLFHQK
# assay-details: Receptor binding affinity, competitive binding with 3H-Dexamethason in thymus cytosol
# Design: species or system Ratte
# condition-parameters: thymus cytosol of adrenalectomised rat; tracer 3H-Dexamethason 20nM; 18 h at 0-4°C; quotient of IC50 values x 100 %
measured-parameter: relative molare Bindungs-affinität RBA (%) zum Glucocorticoidrezeptor Dexamethason = 100 %

>  <structure-string>
COC[C@]1(O)CC[C@H]2[C@@H]3CCC4=CC(=O)CC[C@]45O[C@]35[C@@H](c3ccc(/C=N/OC(C)=O)cc3)C[C@@]21C

>  <unit-annotation>
%

>  <number>
8

$$$$
>  <structure-string>
COC[C@]1(OC)CC[C@H]2[C@@H]3CCC4=CC(=O)CC[C@]45O[C@]35[C@@H](c3ccc(/C=N/OC(C)=O)cc3)C[C@@]21C

>  <unit-annotation>
%

>  <number>
15

$$$$
>  <structure-string>
CN(C)c1ccc([C@H]2C[C@]3(C)[C@@H](CC[C@]3(O)CCCO)[C@@H]3CCC4=CC(=O)CCC4=C32)cc1

>  <unit-annotation>
%

>  <number>
39

$$$$
>  <structure-string>
COC[C@]1(O)CC[C@H]2[C@@H]3CCC4=CC(=O)CC[C@]45O[C@]35[C@@H](c3ccc(/C=N/O)cc3)C[C@@]21C

>  <unit-annotation>
%

>  <number>
12

$$$$
>  <structure-string>
COC[C@]1(OC)CC[C@H]2[C@@H]3CCC4=CC(=O)CC[C@]45O[C@]35[C@@H](c3ccc(/C=N\O)cc3)C[C@@]21C

>  <unit-annotation>
%

>  <number>
18

$$$$
>  <structure-string>
CCNC(=O)O/N=C/c1ccc([C@H]2C[C@@]3(C)[C@@H](CC[C@]3(COC)OC)[C@@H]3CCC4=CC(=O)CC[C@]45O[C@]235)cc1

>  <unit-annotation>
%

>  <number>
30

$$$$
